tested on: MDA-MB-435; experiment: NCI tumour cell line growth inhibition, 48 h
Active and inactive are the calls of the source. Rule as the data show it: active = GI50 up to about 1.1 µM and inactive = higher.
Labels: yes (1) = active, no (0) = inactive

molecule=Cc1cc2ncc3c(=O)n(NS(=O)(=O)c4ccc(N)cc4)ccc3n2n1 assigned_class="no (0)"
molecule=COc1ccc2nc(-c3ccccc3)c(=O)[nH]c2c1 assigned_class="no (0)"
molecule="CCCCCCCCCCCCCCCCNc1nc(=O)n(C2CC(O)C(CO)O2)cc1F (configuration not stated)" assigned_class="no (0)"
molecule="CCOC(=O)C1=NN(c2ccc(C)cc2)C2(c3ccccc3)C=C(c3ccccc3)N(C)CCN12 (configuration not stated)" assigned_class="no (0)"
molecule=O=C(COc1ccc(OCC(=O)N2C(=O)CN(c3ccc(Cl)cc3)C2=S)cc1)N1C(=O)CN(c2ccc(Cl)cc2)C1=S assigned_class="no (0)"
molecule="O=C(NC(CS)C(=O)O)c1cccc2c(=O)c3ccccc3[nH]c12 (configuration not stated)" assigned_class="no (0)"
molecule="COC(=O)[C@@H]1C=C[C@H](OC2OC(COC(C)=O)C(OC(C)=O)C(OC(C)=O)C2OC(C)=O)n2c(=O)c3ccccc3c(=O)n21 (some centres not stated)" assigned_class="no (0)"
molecule=COc1ccccc1/C=C/c1c(N)ncnc1Nc1cccc(Cl)c1 assigned_class="no (0)"
molecule=O=C1C(Cl)=C(Oc2ccc([N+](=O)[O-])cc2)C(=O)c2c(O)ccc(O)c21 assigned_class="no (0)"
molecule=O=c1c(SSc2coc3cc(F)ccc3c2=O)coc2cc(F)ccc12 assigned_class="no (0)"
molecule=[O-][n+]1onc2c3nn(-c4ccccc4)nc3ccc21 assigned_class="no (0)"
molecule=O=C(/N=C1\SCCN1C(=O)C(C(F)(F)F)C(F)(F)F)C(C(F)(F)F)C(F)(F)F assigned_class="no (0)"
molecule=CO[C@H]1[C@@H](O)[C@@H](O)O[C@@H](O[C@H]2CC[C@@]3(C)[C@H](CC[C@@H]4[C@@H]3[C@H](O)C[C@]3(C)[C@@H](C5=CC(=O)OC5)CC[C@]43O)C2)[C@@H]1O assigned_class="yes (1)"
molecule=N#Cc1c(-c2ccc([N+](=O)[O-])cc2)cc(-c2ccc(Nc3ccnc4cc(C(F)(F)F)ccc34)cc2)[nH]c1=O assigned_class="no (0)"
molecule="Cc1ccc([N+](=O)[O-])cc1S(=O)(=O)Nc1ccc(C2=NN(C(=O)c3ccccc3)C(c3ccccc3)C2)cc1 (configuration not stated)" assigned_class="no (0)"
molecule="CC(C)(C)[Si](C)(C)OCC1OC(n2ccc(=O)[nH]c2=O)C(O[Si](C)(C)C(C)(C)C)[C@]12O[C@@H]2CO (some centres not stated)" assigned_class="no (0)"
molecule="NC1CC(=O)c2ccccc21 (configuration not stated)" assigned_class="no (0)"

---

system: ACHN; experiment: NCI tumour cell line growth inhibition, 48 h
The source made the active and inactive calls. No stated cut-off is given here; in the data, active = GI50 up to about 1.1 µM and inactive = higher.
Examples of compounds with documented GI50 follow.
Recorded Metric: GI50

compound="CC#C[C@@]1(O)CCCCC1O (some centres undefined)" experimental_system=ACHN recorded_metric=GI50 obs_value="> 100 µM (inactive)"
compound="COC(=O)[C@@H]1[C@H](OC(C)=O)CCC2[C@@]3(C[C@@H](c4ccoc4)O[C@@H]3OC)[C@H](C)CC[C@]21C(=O)OC (some centres undefined)" experimental_system=ACHN recorded_metric=GI50 obs_value="> 25 µM (inactive)"
compound=CC(C)(Oc1ccc(Cl)cc1)C(=O)N(C(=O)N1CCCCC1)c1ccccc1 experimental_system=ACHN recorded_metric=GI50 obs_value="14.9 µM (inactive)"
compound=O=C1C(Cl)=C(Oc2ccc([N+](=O)[O-])cc2)C(=O)c2c(O)ccc(O)c21 experimental_system=ACHN recorded_metric=GI50 obs_value="54.2 µM (inactive)"
compound=O=C(C=P(c1ccccc1)(c1ccccc1)c1ccccc1)C12CC3CC(CC(C3)C1)C2 experimental_system=ACHN recorded_metric=GI50 obs_value="16.2 µM (inactive)"
compound=CCOC(=O)/C=C(/N=P(c1ccccc1)(c1ccccc1)c1ccccc1)C(F)(F)F experimental_system=ACHN recorded_metric=GI50 obs_value="> 10 µM (inactive)"
compound="Cn1c(=O)oc2cc(C(O)CN3CCN(Cc4ccc5c(c4)OCO5)CC3)ccc21 (centres undefined)" experimental_system=ACHN recorded_metric=GI50 obs_value="> 100 µM (inactive)"
compound=O/N=C(\C(=N/O)Nc1ccc(-c2ccc(NC(=N/O)/C(=N\O)c3ccccc3)cc2)cc1)c1ccccc1 experimental_system=ACHN recorded_metric=GI50 obs_value="30.6 µM (inactive)"
compound="CC(=O)NC(CCCCNC(=O)OC(C)(C)C)C(=O)O (centres undefined)" experimental_system=ACHN recorded_metric=GI50 obs_value="> 100 µM (inactive)"

---

system: SN12C; test: NCI tumour cell line growth inhibition, 48 h
Activity calls are given as the source filed them. No stated cut-off is given here; in the data, active = GI50 up to about 1.1 µM and inactive = higher.
Labels: active, inactive

molecule=Cc1ccc(-c2cc(=O)c3cc(C)c(C)c(C(=O)O)c3o2)cc1[N+](=O)[O-] assigned_class=inactive
molecule=c1ccc2/c3[nH]/c(c2c1)=N\c1ccc(cc1)-c1nc2ccc(cc2o1)/N=c1/[nH]/c(c2ccccc12)=N/c1ccc2nc(oc2c1)-c1ccc(cc1)\N=3 assigned_class=inactive
molecule=CCCCOCOc1ccccc1P1(=O)COc2ccccc2OC1 assigned_class=inactive
molecule=CCC(=O)c1cn(C)c(=O)c2ccccc12 assigned_class=inactive
molecule=Cc1ccccc1/C=N/C12CC3CC(CC(C3)C1)C2 assigned_class=inactive
molecule=O=C(/C=C/c1ccccc1)CCN1CCOCC1 assigned_class=inactive
molecule=CCSc1[nH]c(Nc2nc(-c3ccccc3)n(-c3ccccc3)n2)c(C(N)=O)c1C(N)=O assigned_class=inactive
molecule="Cc1ccc2c(c1)nc1n2C(c2c(F)cccc2F)SC1 (stereo unspecified)" assigned_class=inactive
molecule="O=C1CC(C(=O)O)Cc2c(Br)ccc(O)c21 (stereo unspecified)" assigned_class=inactive
molecule=CCc1nc(N)nc(N)c1-c1ccc(Cc2ccccc2)c([N+](=O)[O-])c1 assigned_class=active
molecule=C=C(c1ccc2[nH]c(NC(=O)OC)nc2c1)c1cccs1 assigned_class=active

---

test system: NCI-H522; test: NCI tumour cell line growth inhibition, 48 h
Activity calls are given as the source filed them. Cut-off read from the data, not from the text of the source: active = GI50 up to about 1.1 µM and inactive = higher. Peptide text beside a SMILES is read from it. * marks the point of attachment. Cbz = O=C(OCc1ccccc1)*
Examples of compounds with documented GI50 follow.
Recorded Metric: GI50

compound=Cc1cc(C)nc(NS(=O)(=O)c2ccc(NNc3c4ccccc4nc4c(C(=O)Nc5ccc(S(N)(=O)=O)cc5)cccc34)cc2)n1 experimental_system=NCI-H522 obs_value="19.7 µM (inactive)"
compound="CN1C(=O)C2(c3ccccc31)C1CC3C(CO1)C1C2C3(CO)CN1C#N (centres undefined)" experimental_system=NCI-H522 obs_value="> 100 µM (inactive)"
compound="CC(=O)NC(CS/N=N/c1[nH]cnc1C(N)=O)C(=O)O (centres undefined)" experimental_system=NCI-H522 obs_value="14.9 µM (inactive)"
compound=O=C(CSCC(=O)N/N=C\c1ccc(O)c(O)c1O)N/N=C\c1ccc(O)c(O)c1O experimental_system=NCI-H522 obs_value="19.1 µM (inactive)"
compound="CC1(SCC(N)C(=O)O)CC(=O)NC1=O (centres undefined)" experimental_system=NCI-H522 obs_value="> 100 µM (inactive)"
compound="CCOC(=O)C(C)NC(=O)C(C)NC(=O)C(C)NC(=O)C(C)NC(=O)C(C)NC(=O)C(C)NC(=O)C(C)NC(=O)OCc1ccccc1 (centres undefined) (Cbz-AAAAAAA-OEt; configuration not given here)" experimental_system=NCI-H522 obs_value="> 100 µM (inactive)"
compound=Cc1nnc(CC#N)n1NC(=O)CC#N experimental_system=NCI-H522 obs_value="> 100 µM (inactive)"
compound="COc1cccc2c1[C@H]1CO[C@H]3C4C[C@H](C(=O)O)C([C@@H](C2)N13)N4C (some centres undefined)" experimental_system=NCI-H522 obs_value="0.294 µM (active)"
compound="CCOC(=O)C(NS(=O)(=O)c1ccccc1)(C(F)(F)F)P(=O)(OCC(C)C)OCC(C)C (centres undefined)" experimental_system=NCI-H522 obs_value="> 100 µM (inactive)"
compound=c1ccc2/c3[nH]/c(c2c1)=N\c1ccc(cc1)-c1nc2ccc(cc2o1)/N=c1/[nH]/c(c2ccccc12)=N/c1ccc2nc(oc2c1)-c1ccc(cc1)\N=3 experimental_system=NCI-H522 obs_value="43.8 µM (inactive)"
compound="Nc1ncnc2c1nnn2C1OC(CO)C(O)C1O (centres undefined)" experimental_system=NCI-H522 obs_value="1.87 µM (inactive)"
compound=O=C1COc2cc3c(cc2N1)SCCC(=O)N3 experimental_system=NCI-H522 obs_value="> 100 µM (inactive)"
compound=Cc1cc(NCCCCCCCCCC[n+]2c(C)cc(N)c3ccccc32)c2ccccc2n1 experimental_system=NCI-H522 obs_value="0.253 µM (active)"
compound="[O-][S+]1c2ccccc2N=C(c2cccs2)CC1c1ccccc1O (centres undefined)" experimental_system=NCI-H522 obs_value="65.2 µM (inactive)"
compound=C=CCN1C[C@H](C)N([C@H](c2ccc(C(=O)N(CC)CCO)cc2)c2cccc(OC)c2)C[C@H]1C experimental_system=NCI-H522 obs_value="> 100 µM (inactive)"
compound=N#Cc1c(-c2ccc([N+](=O)[O-])cc2)cc(-c2ccc(Nc3ccnc4cc(C(F)(F)F)ccc34)cc2)[nH]c1=O experimental_system=NCI-H522 obs_value="> 100 µM (inactive)"
compound="COC(=O)C(Cc1c[nH]c2ccccc12)NC1=Nc2ccncc2S(=O)(=O)N1c1cccc(OC(C)C)c1 (centres undefined)" experimental_system=NCI-H522 obs_value="21.4 µM (inactive)"
compound="C=CCC1CC(n2cc(C)c(=O)[nH]c2=O)OC1CO[Si](C)(C)C(C)(C)C (centres undefined)" experimental_system=NCI-H522 obs_value="10.4 µM (inactive)"
compound=COc1cccc2c1N[S@](=O)S2 experimental_system=NCI-H522 obs_value="86.1 µM (inactive)"
